Entries below carry reported Ki on Muscarinic acetylcholine receptor M1 (Bos taurus, UniProt Q8WMX0).
Sequence (Q8WMX0 whole entry): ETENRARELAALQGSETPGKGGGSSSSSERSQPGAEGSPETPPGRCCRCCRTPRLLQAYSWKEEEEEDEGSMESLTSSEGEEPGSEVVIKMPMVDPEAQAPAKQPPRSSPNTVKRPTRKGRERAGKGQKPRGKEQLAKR

STRUCTURE AS SMILES: CCCCCSc1nsnc1C1=CCN(C)CC1
MEASUREMENT TARGET: Muscarinic acetylcholine receptor M1 (Bos taurus, UniProt Q8WMX0)
Ki: 36 nM
//
STRUCTURE AS SMILES: CCCSc1nsnc1C1=CCN(C)CC1
MEASUREMENT TARGET: Muscarinic acetylcholine receptor M1 (Bos taurus, UniProt Q8WMX0)
Ki: 23 nM
//
STRUCTURE AS SMILES: CN1CCC=C(c2nsnc2SCCF)C1
MEASUREMENT TARGET: Muscarinic acetylcholine receptor M1 (Bos taurus, UniProt Q8WMX0)
Ki: 25 nM

====

What follows is a record of Ki for UniProt Q8VH26.
Sequence (Q8VH26 whole entry): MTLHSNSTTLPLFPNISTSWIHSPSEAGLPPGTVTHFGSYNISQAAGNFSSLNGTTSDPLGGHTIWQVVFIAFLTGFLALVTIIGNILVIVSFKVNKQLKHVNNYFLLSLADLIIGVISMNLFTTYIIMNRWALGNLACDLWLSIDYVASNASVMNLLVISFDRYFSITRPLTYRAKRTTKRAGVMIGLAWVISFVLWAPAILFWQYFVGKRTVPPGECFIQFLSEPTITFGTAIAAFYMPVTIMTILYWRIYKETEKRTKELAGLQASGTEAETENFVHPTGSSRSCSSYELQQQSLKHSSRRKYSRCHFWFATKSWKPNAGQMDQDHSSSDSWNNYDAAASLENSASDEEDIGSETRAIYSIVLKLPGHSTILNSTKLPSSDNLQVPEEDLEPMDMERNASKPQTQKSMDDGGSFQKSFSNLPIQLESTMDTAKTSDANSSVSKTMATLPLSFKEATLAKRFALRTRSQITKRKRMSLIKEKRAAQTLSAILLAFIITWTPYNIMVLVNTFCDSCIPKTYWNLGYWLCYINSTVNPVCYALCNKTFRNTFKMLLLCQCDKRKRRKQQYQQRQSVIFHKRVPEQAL
PARAMETER MEASURED: Ki

STRUCTURE AS SMILES: CCCCCSc1nsnc1C1=CCN(C)CC1
DATA VALUE: > 10 µM
--
STRUCTURE AS SMILES: CN1CCC=C(c2nsnc2SCCF)C1
DATA VALUE: > 10 µM
--
STRUCTURE AS SMILES: CCCSc1nsnc1C1=CCN(C)CC1
DATA VALUE: 0.163 µM

Source listed as ChEMBL document CHEMBL1128678.
